Biological target: E. coli DdlB enzyme (D-alanine:D-alanine ligase) (Escherichia coli)
Construct: made in house; host or cells: E. coli
Test: biochemical
Conditions: tested concentration 2.5 mM; read-out: DdlB RA
A collection of molecules and their measured remaining activity at 2500 µM
Express it in %; write the number only.

Record summary for CC(C)N1CCC(CCC(=O)O)CC1 : reported remaining activity at 2500 µM = 108

Record summary for CC1(C)CC(O)(c2cc(C(=O)O)no2)CCO1 (stereo not drawn) : reported remaining activity at 2500 µM = 72

Record summary for Cn1nccc1-c1cccc(B(O)O)c1 : reported remaining activity at 2500 µM = 93

Record summary for CCCCCC(C)n1nc(O)cc1N (stereo not drawn) : reported remaining activity at 2500 µM = 103

Record summary for CCc1nc(N2CCOCC2)ncc1C(=O)O : reported remaining activity at 2500 µM = 91

Continuing:
Record summary for CCCCC(CC)n1nc(O)cc1N (stereo not drawn) : reported remaining activity at 2500 µM = 100

Record summary for CC(C)Oc1c(OC(C)C)c(=O)c1=O : reported remaining activity at 2500 µM = 72

Record summary for Cc1ccc(-c2noc(C(=O)O)n2)cc1 : reported remaining activity at 2500 µM = 77

====

A collection of molecules and their measured remaining activity at 2200 µM
Molecular target: E. coli DdlB enzyme (D-alanine:D-alanine ligase) (Escherichia coli)
Construct: made in house; host or cells: E. coli
Experiment: biochemical
Conditions: tested concentration 2.2 mM; read-out: DdlB RA
Express it in %; write the number only.

Solved cases below.
Record summary for CC1(C)Cc2noc(N)c2C(C)(C)N1O [Compound 8013-4059] : reported remaining activity at 2200 µM = 96

Record summary for CCOC1CN=C2C(C#N)=CC=CN21 (stereo not shown) [Compound Y600-6204] : reported remaining activity at 2200 µM = 92

Record summary for CC(=O)NCC1CNCC12CCCCC2 (stereo not shown) [Compound S855-0002] : reported remaining activity at 2200 µM = 85

With those in mind, consider the next molecule.
Record summary for O=C(O)c1cnc2cc(Cl)ccc2c1O [Compound Y042-3116] : reported remaining activity at 2200 µM = 44

====

Molecular target: E. coli DdlB enzyme (D-alanine:D-alanine ligase) (Escherichia coli, UniProt P07862)
Construct: made in house; host or cells: E. coli
Assay: biochemical
Conditions: residual activity of DdlB; fragment library screening; tested concentration 2.5 mM; read-out: DdlB RA
A collection of compounds and their measured remaining activity at 2500 µM
Express it in %; write the number only.

Solved cases below.
Record summary for Nc1ncccn1 : reported remaining activity at 2500 µM = 102

Record summary for C#Cc1cccc(OC)c1 : reported remaining activity at 2500 µM = 91

Record summary for NS(=O)(=O)c1ccccc1 : reported remaining activity at 2500 µM = 110

Continuing:
Record summary for CCOC(=O)N1CCNCC1 : reported remaining activity at 2500 µM = 100

====

Molecular target: E. coli DdlB enzyme (D-alanine:D-alanine ligase) (Escherichia coli)
Construct: made in house; host or cells: E. coli
Assay: biochemical
Details: residual activity; tested concentration 2.1 mM; read-out: DdlB RA
A collection of compounds and their measured remaining activity at 2100 µM
Express it in %; write the number only.

Solved cases below.
Record summary for O=C1CCC2(CCN(S(=O)(=O)c3ccccc3)C2)N1 (stereo not drawn) : reported remaining activity at 2100 µM = 101

Record summary for Oc1cccc2ccc(Nc3ccccn3)nc12 : reported remaining activity at 2100 µM = 31

Record summary for COC(=O)N1C2C=CC(C2)C1(C(F)(F)F)C(F)(F)F (stereo not drawn) : reported remaining activity at 2100 µM = 89

Record summary for Cc1nc(C(=O)O)c(C)n1C1CCN(C)CC1 : reported remaining activity at 2100 µM = 100

Record summary for CCS(=O)(=O)N1CCc2[nH]c(-c3ccccc3)nc2C1 : reported remaining activity at 2100 µM = 81

Continuing:
Record summary for O=C(O)c1ccccc1NC(=O)C(F)(F)F : reported remaining activity at 2100 µM = 104

Record summary for O=C1C(O)C2(CCCCC2)N1C1CCNCC1 (stereo not drawn) : reported remaining activity at 2100 µM = 90

Record summary for Cc1noc(C)c1S(=O)(=O)N1CC(n2ccnc2)C1 : reported remaining activity at 2100 µM = 97

Record summary for CC(CCc1ccccc1)NC(=O)N1CCOCC1 (stereo not drawn) : reported remaining activity at 2100 µM = 94

Record summary for CC1CN(S(=O)(=O)c2ccc(F)c(F)c2)CC(C)O1 (stereo not drawn) : reported remaining activity at 2100 µM = 95

Record summary for CCC1(C(=O)NC2CCCCCC2)CCCCC(=O)N1 (stereo not drawn) : reported remaining activity at 2100 µM = 99

Record summary for CC(C(=O)NCc1cc(F)cc(F)c1)C1CCOCC1 (stereo not drawn) : reported remaining activity at 2100 µM = 92
